Measured clearance by item
assay: Plasma clearance in cannula implanted rat at 1 mg/kg, iv by LC-MS/MS analysis; format: ADME, organism-based
value-kind: clearance (mL/min/kg)

| compound-string | numeric-readout |
| --- | --- |
| C=C(C)[C@@H]1CC[C@]2(C(=O)NCCN(C)C)CC[C@]3(C)[C@H](CC[C@@H]4[C@@]5(C)CC=C(c6ccc(C(=O)O)cc6)C(C)(C)[C@@H]5CC[C@]43C)[C@@H]12 | 6.1 |
| C=C(C)[C@@H]1CC[C@]2(C(=O)N(C)CCN(C)C)CC[C@]3(C)[C@H](CC[C@@H]4[C@@]5(C)CC=C(c6ccc(C(=O)O)cc6)C(C)(C)[C@@H]5CC[C@]43C)[C@@H]12 | 2.2 |
| C=C(C)[C@@H]1CC[C@]2(C(=O)NCCC(C)C)CC[C@]3(C)[C@H](CC[C@@H]4[C@@]5(C)CC=C(c6ccc(C(=O)O)cc6)C(C)(C)[C@@H]5CC[C@]43C)[C@@H]12 | 0.6 |
| C=C(C)[C@@H]1CC[C@]2(C(=O)NCCCN(C)C)CC[C@]3(C)[C@H](CC[C@@H]4[C@@]5(C)CC=C(c6ccc(C(=O)O)cc6)C(C)(C)[C@@H]5CC[C@]43C)[C@@H]12 | 8.3 |

---

tested on: Human immunodeficiency virus 1; test: Antiviral activity against wild type HIV1 NL4-3 infected in human MT2 cells after 4 to 5 days by dual-luciferase reporter gene assay; type: functional, organism-based; conditions: Human immunodeficiency virus 1, NL4-3, MT2
pEC50: −log10 of the molar value.
Measured pEC50 by item

| compound-string | assay-target | pEC50 |
| --- | --- | --- |
| C=C(C)[C@@H]1CC[C@]2(C(=O)NCC(C)(C)N)CC[C@]3(C)[C@H](CC[C@@H]4[C@@]5(C)CC=C(c6ccc(C(=O)O)cc6)C(C)(C)[C@@H]5CC[C@]43C)[C@@H]12 | Human immunodeficiency virus 1 | 8.15 |
| C=C(C)[C@@H]1CC[C@]2(C(=O)NCc3nccs3)CC[C@]3(C)[C@H](CC[C@@H]4[C@@]5(C)CC=C(c6ccc(C(=O)O)cc6)C(C)(C)[C@@H]5CC[C@]43C)[C@@H]12 | Human immunodeficiency virus 1 | 7.82 |
| C=C(C)[C@@H]1CC[C@]2(C(=O)NCC(=O)O)CC[C@]3(C)[C@H](CC[C@@H]4[C@@]5(C)CC=C(c6ccc(C(=O)O)cc6)C(C)(C)[C@@H]5CC[C@]43C)[C@@H]12 | Human immunodeficiency virus 1 | 6.97 |

---

assay: Plasma clearance in cannula implanted rat at 1 mg/kg, iv by LC-MS/MS analysis; type: ADME, organism-based
value-kind: log10 clearance (log10 of the value in mL/min/kg)

| compound-string | log10 clearance |
| --- | --- |
| C=C(C)[C@@H]1CC[C@]2(C(=O)NCCC(=O)O)CC[C@]3(C)[C@H](CC[C@@H]4[C@@]5(C)CC=C(c6ccc(C(=O)O)cc6)C(C)(C)[C@@H]5CC[C@]43C)[C@@H]12 | 0.08 |
| C=C(C)[C@@H]1CC[C@]2(C(=O)NCCc3ccccn3)CC[C@]3(C)[C@H](CC[C@@H]4[C@@]5(C)CC=C(c6ccc(C(=O)O)cc6)C(C)(C)[C@@H]5CC[C@]43C)[C@@H]12 | 0.51 |
| C=C(C)[C@@H]1CC[C@]2(C(=O)NCCN(CC)CC(=O)O)CC[C@]3(C)[C@H](CC[C@@H]4[C@@]5(C)CC=C(c6ccc(C(=O)O)cc6)C(C)(C)[C@@H]5CC[C@]43C)[C@@H]12 | 1.43 |
| C=C(C)[C@@H]1CC[C@]2(C(=O)NCCN(C(C)C)C(C)C)CC[C@]3(C)[C@H](CC[C@@H]4[C@@]5(C)CC=C(c6ccc(C(=O)O)cc6)C(C)(C)[C@@H]5CC[C@]43C)[C@@H]12 | 0.63 |
| C=C(C)[C@@H]1CC[C@]2(C(=O)NCCN(CC)CC)CC[C@]3(C)[C@H](CC[C@@H]4[C@@]5(C)CC=C(c6ccc(C(=O)O)cc6)C(C)(C)[C@@H]5CC[C@]43C)[C@@H]12 | 0.52 |
